Data credit: patent US9796711B2

molecular target: ΔF508-CFTR (Homo sapiens, UniProt P13569, DEL508-508); construct: host or cells: CFBE41o-, doxycycline-inducible; test: CFTR cell surface levels using HRP-tagged ΔF508-CFTR expressing CFBE cells, intrinsic corrector capacity; assay type: cell-based; conditions: HRP-tagged ΔF508-CFTR expressing CFBE cells; intrinsic corrector capacity (no co-corrector); 33° C., 20 hours; read-out: EC50
Sequence (P13569 with tags, fused parts or gaps DEL508-508): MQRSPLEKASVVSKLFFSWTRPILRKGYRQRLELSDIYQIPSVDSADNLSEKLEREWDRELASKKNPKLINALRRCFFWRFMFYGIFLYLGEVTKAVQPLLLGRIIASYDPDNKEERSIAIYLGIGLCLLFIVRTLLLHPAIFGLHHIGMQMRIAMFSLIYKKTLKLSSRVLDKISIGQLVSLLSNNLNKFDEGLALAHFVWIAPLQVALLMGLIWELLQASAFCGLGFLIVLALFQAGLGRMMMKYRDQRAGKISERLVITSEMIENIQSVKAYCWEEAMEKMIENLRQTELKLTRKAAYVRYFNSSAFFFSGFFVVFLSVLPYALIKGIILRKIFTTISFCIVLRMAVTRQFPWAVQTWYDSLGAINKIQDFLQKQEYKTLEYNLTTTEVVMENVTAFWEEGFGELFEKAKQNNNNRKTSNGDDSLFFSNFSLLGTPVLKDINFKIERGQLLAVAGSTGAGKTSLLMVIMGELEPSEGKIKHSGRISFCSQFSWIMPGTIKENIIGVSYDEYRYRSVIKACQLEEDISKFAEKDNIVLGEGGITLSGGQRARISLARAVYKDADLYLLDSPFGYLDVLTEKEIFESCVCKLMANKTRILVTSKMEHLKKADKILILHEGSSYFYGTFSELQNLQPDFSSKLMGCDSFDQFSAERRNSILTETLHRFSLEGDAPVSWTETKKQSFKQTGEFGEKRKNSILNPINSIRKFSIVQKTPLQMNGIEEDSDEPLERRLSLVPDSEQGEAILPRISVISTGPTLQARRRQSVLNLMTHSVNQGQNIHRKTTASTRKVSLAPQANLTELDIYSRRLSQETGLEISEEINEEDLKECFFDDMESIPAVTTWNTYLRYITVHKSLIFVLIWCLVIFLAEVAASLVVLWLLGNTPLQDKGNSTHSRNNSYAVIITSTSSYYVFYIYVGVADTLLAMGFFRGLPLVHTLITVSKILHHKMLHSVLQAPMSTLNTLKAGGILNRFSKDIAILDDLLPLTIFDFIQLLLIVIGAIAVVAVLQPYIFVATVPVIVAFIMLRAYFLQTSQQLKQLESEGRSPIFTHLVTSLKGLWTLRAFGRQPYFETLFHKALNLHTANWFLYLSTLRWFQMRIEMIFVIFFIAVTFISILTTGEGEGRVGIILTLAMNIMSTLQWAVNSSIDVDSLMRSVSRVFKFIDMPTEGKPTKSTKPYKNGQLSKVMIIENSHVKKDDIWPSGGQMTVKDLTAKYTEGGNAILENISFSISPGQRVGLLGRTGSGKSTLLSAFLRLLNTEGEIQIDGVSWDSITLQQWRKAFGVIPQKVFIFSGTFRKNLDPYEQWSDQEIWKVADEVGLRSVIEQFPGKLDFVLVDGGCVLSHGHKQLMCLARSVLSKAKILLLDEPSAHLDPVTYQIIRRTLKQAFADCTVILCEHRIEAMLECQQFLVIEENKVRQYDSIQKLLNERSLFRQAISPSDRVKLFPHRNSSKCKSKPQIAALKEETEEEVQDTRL
pEC50: −log10 of the molar value.
Recorded pEC50 by entry
Experimental Endpoint: pEC50

O=C(O)c1cc(OC2CC3(COC3)C2)c2c(C3CCC3)nn(-c3ccccc3)c2n1: 5.95
O=C(O)c1cc(N2CC[C@H](F)C2)c2c(C3CCC3)nn(-c3ccccc3)c2n1: 5.93
N#CC1CCN(c2ccc(-c3cc(C(=O)O)nc4c3c(OC3COC3)nn4-c3ccccc3)cn2)CC1: 5.94
O=C(O)c1cc(OCCOC2COC2)c2c(C3CCC3)nn(-c3ccccc3)c2n1: 6.05
